Tested on: SK-ES-1
Test: relative viability vs DMSO control (72 h) (fraction); higher = more viable cells
Details: 0.00152 µM
Lab note - cut at 1 for relative viability: Yes if strictly below, No if not.

Field: example entries. Status: answers known.
molecule=Cc1ccc(NC(=O)c2ccc(CN3CCN(C)CC3)cc2)cc1Nc1nccc(-c2cccnc2)n1 group_label=Yes
molecule=CN(C)C[C@@H]1CCn2cc(c3ccccc32)C2=C(C(=O)NC2=O)c2cn(c3ccccc23)CCO1 group_label=No

stdin: Quick check: relative viability of `CO[C@H]1C[C@@H]2CC[C@@H](C)[C@@](O)(O2)C(=O)C(=O)N2CCCC[C@H]2C(=O)O[C@H]([C@H](C)C[C@@H]2CC[C@@H](O)[C@H](OC)C2)CC(=O)[C@H](C)/C=C(\C)[C@@H](O)[C@@H](OC)C(=O)[C@H](C)C[C@H](C)/C=C/C=C/C=C/1C` under 1?
stdout: Yes

Where these numbers come from: the supplement of paper PMC10883282
